Entry source: BigSolDB 2.1

- condition description: in isopropanol, 288.2 K
observed property: solubility (mole fraction)

Exam item: Value lookup for solubility (mole fraction); key = "COC(=O)[C@H](N)c1ccc(O)cc1"
Marked response: 0.000327

* * *

- condition description: in methanol, 293.24 K
observed property: solubility (mole fraction)

Exam item: Entry "COC(=O)[C@H](N)c1ccc(O)cc1" has what solubility (mole fraction)?
Marked response: 0.00338
